B1: C8orf76 (parent)
chain: KLAEAYLNLGPALSAALASSQKQH

- Variants of: B1
- PROCEDURE SUMMARY: protein stability index of a GFP-peptide fusion (GPS, HEK-293T) (PSI 1-6); higher = more stable;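 further: lentivirally expressed fusions sorted by FACS into six bins by GFP to DsRed ratio, PSI derived from sequencing read proportions per bin multiplied by bin number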
- CONDITION PARAMETERS: c terminus: a fixed tail appended
Class Criterion met: protein stability index at least 3. Class Criterion not met: protein stability index below 3.

In [3]: df
Out[3]:
    mutation_name       answer_label
 0           A16I      Criterion met
 1           G10Y  Criterion not met
 2           L13Q  Criterion not met
 3           A12L  Criterion not met
 4            A3E  Criterion not met
 5            A5S  Criterion not met
 6           S19M      Criterion met
 7            A3K  Criterion not met
 8           A18P  Criterion not met
 9           L13R  Criterion not met
10           A12W  Criterion not met
11            K1D  Criterion not met
12           Q21S  Criterion not met
13            A5P  Criterion not met
14           G10M  Criterion not met
15           A18N  Criterion not met
16            L7Q  Criterion not met
17           A16N  Criterion not met
18           K22G      Criterion met
19           P11D  Criterion not met
20           H24V      Criterion met
21           A12T  Criterion not met
22           K22L      Criterion met
23            L7C  Criterion not met
24            L2K      Criterion met
25           A16W  Criterion not met
26            L2V  Criterion not met
27            L2H  Criterion not met
28           H24F      Criterion met
29           A15F  Criterion not met
30           S14N  Criterion not met
31           A16L      Criterion met
32           A15V  Criterion not met
